assay comment: MTD in DBA2 mice
applied conditions: mouse, in vivo
Description: MTD in DBA2 mice ˜1.5 mg/kg/d×3 days.
experimental endpoint: MTD at 3 days

**Query** Record request: MTD at 3 days value, item C#CCN(Cc1cc2c(=O)n(C)c(CN3CCN(C)CC3)nc2cc1Cl)c1ccc(C(=O)NCc2cccnc2)cc1 [CB300919]
**Result** ~1.5 mg/kg/day

###

experimental endpoint: melting point

**Query** Record request: melting point value, item C#CCN(Cc1cc2c(=O)n(C)c(CN3CCCCC3)nc2cc1Cl)c1ccc(C(=O)NCc2cccnc2)cc1 [CB300923]
**Result** 148 to 150 °C

**Query** Now consider C#CCN(Cc1cc2c(=O)n(C)c(CN3CCN(C)CC3)nc2cc1Cl)c1ccc(C(=O)NCCCn2ccnc2)cc1 [CB300929] and answer again.
**Result** > 115 °C

**Query** Now consider C#CCN(Cc1cc2c(=O)n(CC(=O)N(CC)CC)c(CN3CCCCC3)nc2cc1Cl)c1ccc(C(=O)NCc2cccnc2)cc1 [CB300941] and answer again.
**Result** > 105 °C

**Query** Now consider C#CCN(Cc1cc2c(=O)n(CCN(C)C)c(CN3CCCCC3)nc2cc1Cl)c1ccc(C(=O)NCc2cccnc2)cc1 [CB300933] and answer again.
**Result** 90 to 93 °C

**Query** Now consider C#CCN(Cc1cc2c(=O)n(C)c(CN3CCN(c4ccccc4)CC3)nc2cc1Cl)c1ccc(C(=O)NCc2cccnc2)cc1 [CB300934] and answer again.
**Result** 214 to 216 °C

**Query** Now consider C#CCN(Cc1cc2c(=O)n(C)c(CN3CCOCC3)nc2cc1Cl)c1ccc(C(=O)NCc2cccnc2)cc1 [CB300925] and answer again.
**Result** > 145 °C

**Query** Now consider C#CCN(Cc1cc2c(=O)n(CC(=O)N3CCCCC3)c(CN3CCCCC3)nc2cc1Cl)c1ccc(C(=O)NCc2cccnc2)cc1 [CB300938] and answer again.
**Result** 128 to 130 °C

Just for reference, patent US6699861B1 is where these values come from.
